Test: Pharmacokinetics and oral bioavailability of D11.2 in male SD rats (IV, PO, SQ)
Assay type: in vivo
Details: male, Sprague Dawley, rat, plasma, iv, 1 mg/kg, IV 1 mg/kg, Mean; read-out: T1/2z (converted)
Where a SMILES comes first, the peptide text is derived from it. [ ]: non-standard residue; d: D form. NMeL = CN[C@@H](CC(C)C)C(=O)O; Sar = CNCC(=O)O
MEASUREMENT NAME: half-life (h)
Respond numerically; units are h and should not be typed.

Req: I would be grateful if you could share the reported half-life for CC[C@@H](C)[C@H]1NC(=O)[C@@H]2CCCN2C(=O)[C@@H]([C@H](C)CC)NC(=O)CN(C)C(=O)[C@H](CC(C)C)NC(=O)[C@@H](Cc2ccccc2)NC(=O)[C@H](CC(C)C)N(C)C(=O)[C@H]2CCCN2C(=O)[C@@H](CC(C)C)NC(=O)[C@H](CC(C)C)NC(=O)[C@H]2CCCN2C1=O [Design D11.2] (cyclo(L[Sar][dI]P[dI][dP]L[dL][dP][NMeL][dF])) .
Resp: 2.29

* * *

System: Caco-2 cells
Experiment: Caco-2 permeability assay (apical to basolateral)
Type: in vitro ADME, human
Details: Caco-2
Where a SMILES comes first, the peptide text is derived from it. [ ]: non-standard residue; d: D form. NMeL = CN[C@@H](CC(C)C)C(=O)O; dNMeL = CN[C@H](CC(C)C)C(=O)O; NMeA = CN[C@@H](C)C(=O)O; dNMeA = CN[C@H](C)C(=O)O
Catalogue of Caco_R3 readings, one per entry.
Lab note: record the figure alone, no unit after it.

Req: // map CC[C@H](C)[C@@H]1NC(=O)[C@H]2CCCN2C(=O)[C@@H]2CCCN2C(=O)[C@@H](C(C)C)NC(=O)[C@@H](C)N(C)C(=O)[C@H](C)N(C)C(=O)[C@@H](CC(C)C)N(C)C(=O)[C@@H](C(C)C)NC1=O [Design D8.26, DVAL *DLEU *ALA *DALA DVAL PRO DPRO ILE] (cyclo(I[dV][dNMeL][NMeA][dNMeA][dV]P[dP])) to recorded Caco_R3 (system: Caco-2 cells)
Resp: 0.94

Kindly review the next compound as well.
Req: // map CC(C)C[C@@H]1C(=O)N[C@H](CC(C)C)C(=O)N2CCC[C@@H]2C(=O)N2CCC[C@@H]2C(=O)N(C)[C@@H](CC(C)C)C(=O)N[C@H](CC(C)C)C(=O)N2CCC[C@@H]2C(=O)N2CCC[C@H]2C(=O)N1C [Design D8.32, DPRO DPRO *LEU DLEU DPRO PRO *DLEU DLEU] (cyclo([dNMeL][dL][dP][dP][NMeL][dL][dP]P)) to recorded Caco_R3 (system: Caco-2 cells)
Resp: 2.54

* * *

Catalogue of PAMPA_R1 readings, one per entry.
Settings: PAMPA
Where a SMILES comes first, the peptide text is derived from it. [ ]: non-standard residue; d: D form. NMeF = CN[C@@H](Cc1ccccc1)C(=O)O; dNMeL = CN[C@H](CC(C)C)C(=O)O; NMeV = CN[C@H](C(=O)O)C(C)C; dNMeA = CN[C@H](C)C(=O)O

Answered cases to consult:
Req: I would be grateful if you could share the reported PAMPA_R1 for CC(C)C[C@@H]1NC(=O)[C@H]2CCCN2C(=O)[C@@H]2CCCN2C(=O)[C@H](CC(C)C)NC(=O)[C@@H](CC(C)C)NC(=O)[C@@H](C)N(C)C(=O)[C@@H](C)N(C)C(=O)[C@@H](C(C)C)NC1=O [Design D8.6, LEU PRO DPRO LEU DVAL *DALA *DALA DLEU] (cyclo(LP[dP]L[dV][dNMeA][dNMeA][dL])) .
Resp: 3.54E-06

Req: I would be grateful if you could share the reported PAMPA_R1 for CC(C)C[C@@H]1C(=O)N[C@H](C(C)C)C(=O)N(C)[C@@H](C(C)C)C(=O)N2CCC[C@H]2C(=O)N2CCC[C@@H]2C(=O)N[C@@H](C)C(=O)N(C)[C@@H](Cc2ccccc2)C(=O)N(C)[C@H](CC(C)C)C(=O)N[C@H](C)C(=O)N1C [Design D9.17] (cyclo(A[NMeF][dNMeL][dA][dNMeL][dV][NMeV]P[dP])) .
Resp: 2.83E-06

Kindly review the next compound as well.
Req: I would be grateful if you could share the reported PAMPA_R1 for CC[C@H](C)[C@@H]1NC(=O)[C@H](Cc2ccccc2)N(C)C(=O)[C@H]2CCCN2C(=O)[C@H]([C@@H](C)CC)NC(=O)[C@@H](C)N(C)C(=O)[C@@H](C)NC(=O)[C@@H]2CCCN2C(=O)[C@H]2CCCN2C(=O)[C@H](CC(C)C)NC(=O)[C@@H](CC(C)C)NC(=O)[C@H](CC(C)C)NC(=O)[C@H]2CCCN2C1=O [Design D12.6] (cyclo([dA][dNMeA]I[dP][NMeF]I[dP]L[dL]L[dP]P)) .
Resp: 2.43E-06

* * *

Catalogue of PAMPA_R3 readings, one per entry.
Conditions: PAMPA
Where a SMILES comes first, the peptide text is derived from it. [ ]: non-standard residue; d: D form. dNMeL = CN[C@H](CC(C)C)C(=O)O; NMeV = CN[C@H](C(=O)O)C(C)C
Lab note: record the figure alone, no unit after it.

Req: I would be grateful if you could share the reported PAMPA_R3 for CC(C)C[C@@H]1C(=O)N(C)[C@H](CC(C)C)C(=O)N[C@H](CC(C)C)C(=O)N[C@@H](C(C)C)C(=O)N2CCC[C@@H]2C(=O)N2CCC[C@H]2C(=O)N[C@H](CC(C)C)C(=O)N[C@@H](C(C)C)C(=O)N1C [Design D8.23, DLEU VAL *DLEU *DLEU DLEU VAL DPRO PRO] (cyclo([dL]V[dNMeL][dNMeL][dL]V[dP]P)) .
Resp: 1.40E-06

***
Req: I would be grateful if you could share the reported PAMPA_R3 for CC[C@H](C)[C@@H]1NC(=O)[C@H](C(C)C)N(C)C(=O)[C@H]2CCCN2C(=O)[C@H]([C@@H](C)CC)NC(=O)[C@@H](CC(C)C)N(C)C(=O)[C@@H](C)NC(=O)[C@@H]2CCCN2C(=O)[C@H]2CCCN2C(=O)[C@H](CC(C)C)NC(=O)[C@@H](Cc2ccccc2)NC(=O)[C@H](CC(C)C)NC(=O)[C@H]2CCCN2C1=O [Design D12.3] (cyclo([dA][dNMeL]I[dP][NMeV]I[dP]L[dF]L[dP]P)) .
Resp: 9.01E-07

Req: I would be grateful if you could share the reported PAMPA_R3 for CC[C@@H](C)[C@H]1NC(=O)[C@@H](CC(C)C)N(C)C(=O)[C@@H]2CCCN2C(=O)[C@H]([C@@H](C)CC)NC(=O)[C@H]([C@@H](C)CC)N(C)C(=O)[C@@H](CC(C)C)NC(=O)[C@@H](C(C)C)N(C)C(=O)[C@H]2CCCN2C(=O)[C@@H](C(C)C)NC(=O)[C@@H]2CCCN2C(=O)[C@H]([C@@H](C)CC)NC1=O (single isomer, unassigned) [Design D11.23.p1] .
Resp: 5.23E-06

* * *

Experiment: Caco-2 permeability assay (apical to basolateral)
Type: in vitro ADME, human
Conditions: Caco-2, Caco_Papp_Average
Where a SMILES comes first, the peptide text is derived from it. [ ]: non-standard residue; d: D form. NMeL = CN[C@@H](CC(C)C)C(=O)O; dNMeL = CN[C@H](CC(C)C)C(=O)O; NMeA = CN[C@@H](C)C(=O)O; dNMeA = CN[C@H](C)C(=O)O
MEASUREMENT NAME: Papp A→B (×10⁻⁶ cm/s)
Respond numerically; units are ×10⁻⁶ cm/s and should not be typed.

Answered cases to consult:
Req: I would be grateful if you could share the reported Papp A→B for CC(C)C[C@@H]1C(=O)N[C@H](CC(C)C)C(=O)N2CCC[C@@H]2C(=O)N2CCC[C@@H]2C(=O)N(C)[C@@H](CC(C)C)C(=O)N[C@H](CC(C)C)C(=O)N2CCC[C@@H]2C(=O)N2CCC[C@H]2C(=O)N1C [Design D8.32, DPRO DPRO *LEU DLEU DPRO PRO *DLEU DLEU] (cyclo([dNMeL][dL][dP][dP][NMeL][dL][dP]P)) .
Resp: 2.73

Req: I would be grateful if you could share the reported Papp A→B for CC(C)C[C@@H]1NC(=O)[C@H](Cc2ccccc2)NC(=O)[C@@H](CC(C)C)NC(=O)[C@H]2CCCN2C(=O)[C@H](C(C)C)NC(=O)[C@@H](CC(C)C)NC(=O)[C@H]2CCCN2C(=O)[C@@H]2CCCN2C1=O [Design D8.5.p2, PHE LEU PRO DPRO DLEU VAL DPRO DLEU] (cyclo(FLP[dP][dL]V[dP][dL])) .
Resp: 21.4

Kindly review the next compound as well.
Req: I would be grateful if you could share the reported Papp A→B for CC[C@H](C)[C@@H]1NC(=O)[C@H]2CCCN2C(=O)[C@@H]2CCCN2C(=O)[C@@H](C(C)C)NC(=O)[C@@H](C)N(C)C(=O)[C@H](C)N(C)C(=O)[C@@H](CC(C)C)N(C)C(=O)[C@@H](C(C)C)NC1=O [Design D8.26, DVAL *DLEU *ALA *DALA DVAL PRO DPRO ILE] (cyclo(I[dV][dNMeL][NMeA][dNMeA][dV]P[dP])) .
Resp: 0.647
